The reported numbers originate from patent US20230233569A1.

SYSTEM UNDER TEST: NRAS Q61K (Homo sapiens, UniProt P01111+P62937, Q61K)
Sequence (P01111 whole entry Q61K): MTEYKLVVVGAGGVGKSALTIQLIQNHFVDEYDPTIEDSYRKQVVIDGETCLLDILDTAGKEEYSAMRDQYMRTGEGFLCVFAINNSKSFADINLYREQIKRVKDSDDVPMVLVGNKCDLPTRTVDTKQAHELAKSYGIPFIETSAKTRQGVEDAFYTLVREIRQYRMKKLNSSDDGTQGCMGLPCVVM
Sequence (P62937 whole entry): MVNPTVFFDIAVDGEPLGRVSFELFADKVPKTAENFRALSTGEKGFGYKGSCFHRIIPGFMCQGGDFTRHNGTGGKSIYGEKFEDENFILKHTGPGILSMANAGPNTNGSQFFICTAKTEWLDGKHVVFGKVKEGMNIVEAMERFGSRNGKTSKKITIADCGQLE
TEST DESCRIPTION: Ras-Raf disruption / FRET / MOA assay (BRAF RBD)
Type: biochemical
RECORDED CONDITIONS: NRAS Q61K; read-out: NRAS Q61K FRET data IC50
RECORDED METRIC: IC50

COMPOUND: CCn1c(-c2cccnc2[C@H](C)OC)c2c3cc(ccc31)-c1cc(O)cc(c1)C[C@H](NC(=O)[C@H](C(C)C)N(C)C(=O)N1CC[C@@H](N(C)C(=O)[C@@H]3CN3)C1)C(=O)N1CCC[C@H](N1)C(=O)OCC(C)(C)C2 (atropisomer, axis not shown)
SYSTEM UNDER TEST: NRAS Q61K (Homo sapiens, UniProt P01111+P62937, Q61K)
IC50: 100 to 1000 nM
--
COMPOUND: CCn1c(-c2cccnc2[C@H](C)OC)c2c3cc(ccc31)-c1cc(O)cc(c1)C[C@H](NC(=O)[C@H](C(C)C)N(C)C(=O)C1CCN(S(=O)(=O)[C@H]3CN3C)CC1)C(=O)N1CCC[C@H](N1)C(=O)OCC(C)(C)C2 (single isomer, unassigned)
SYSTEM UNDER TEST: NRAS Q61K (Homo sapiens, UniProt P01111+P62937, Q61K)
IC50: 100 to 1000 nM
--
COMPOUND: CCn1c(-c2cccnc2[C@H](C)OC)c2c3cc(ccc31)-c1csc(n1)C[C@H](NC(=O)[C@H](C(C)C)N(C)C(=O)N(C)CCN(C)C(=O)[C@@H]1CN1)C(=O)N1CCC[C@H](N1)C(=O)OCC(C)(C)C2 (atropisomer, axis not shown)
SYSTEM UNDER TEST: NRAS Q61K (Homo sapiens, UniProt P01111+P62937, Q61K)
IC50: 10 to 100 nM
--
COMPOUND: CCn1c(-c2cccnc2[C@H](C)OC)c2c3cc(ccc31)-c1csc(n1)C[C@H](NC(=O)[C@H](C(C)C)N(C)C(=O)N1CC[C@@H](N(C)C(=O)[C@@H]3CN3)C1)C(=O)N1CCC[C@H](N1)C(=O)OCC(C)(C)C2 (atropisomer, axis not shown)
SYSTEM UNDER TEST: NRAS Q61K (Homo sapiens, UniProt P01111+P62937, Q61K)
IC50: 10 to 100 nM
--
COMPOUND: CCn1c(-c2cccnc2[C@H](C)OC)c2c3cc(ccc31)-c1cc(O)cc(c1)C[C@H](NC(=O)[C@H](C(C)C)N(C)C(=O)[C@]1(F)CCN(C(=O)[C@H]3CN3)C1)C(=O)N1CCC[C@H](N1)C(=O)OCC(C)(C)C2 (atropisomer, axis not shown)
SYSTEM UNDER TEST: NRAS Q61K (Homo sapiens, UniProt P01111+P62937, Q61K)
IC50: 100 to 1000 nM
--
COMPOUND: CCn1c(-c2cccnc2[C@H](C)OC)c2c3cc(ccc31)-c1cc(O)cc(c1)C[C@H](NC(=O)[C@H](C(C)C)N(C)C(=O)[C@@H]1CCCN(C(=O)[C@@H]3CN3)C1)C(=O)N1CCC[C@H](N1)C(=O)OCC(C)(C)C2
SYSTEM UNDER TEST: NRAS Q61K (Homo sapiens, UniProt P01111+P62937, Q61K)
IC50: 100 to 1000 nM

Query: Give NRAS Q61K (Homo sapiens, UniProt P01111+P62937, Q61K) IC50 for the following compound: CCn1c(-c2cccnc2[C@H](C)OC)c2c3cc(ccc31)-c1cc(O)cc(c1)C[C@H](NC(=O)[C@H](C(C)C)N(C)C(=O)C1CCN(S(=O)(=O)[C@@H]3CN3C)CC1)C(=O)N1CCC[C@H](N1)C(=O)OCC(C)(C)C2 (single isomer, unassigned)
Reply: 100 to 1000 nM

Query: // fetch IC50; item: CCn1c(-c2cccnc2[C@H](C)OC)c2c3cc(ccc31)-c1csc(n1)C[C@H](NC(=O)[C@H](C(C)C)N(C)C(=O)N1CCN(C(=O)[C@@H]3CN3)[C@H](C)C1)C(=O)N1CCC[C@H](N1)C(=O)OCC(C)(C)C2 ; system: NRAS Q61K (Homo sapiens, UniProt P01111+P62937, Q61K)
Reply: 10 to 100 nM

Query: Give IC50 for CCn1c(-c2cccnc2[C@H](C)OC)c2c3cc(ccc31)-c1cc(O)cc(c1)C[C@H](NC(=O)[C@H](C(C)C)N(C)C(=O)CN(C)S(=O)(=O)[C@H]1CN1C)C(=O)N1CCC[C@H](N1)C(=O)OCC(C)(C)C2 (single isomer, unassigned) tested on NRAS Q61K (Homo sapiens, UniProt P01111+P62937, Q61K).
Reply: 100 to 1000 nM
